# tested.on: Motilin Receptor (Oryctolagus cuniculus, UniProt G1T803)
# Construct: The muscle tissue was homogenized in 10 volumes of 50 mM Tris-Cl; from tissue; host or cells: rabbit colon smooth muscle, crude membrane homogenate
# Sequence (G1T803 1-400): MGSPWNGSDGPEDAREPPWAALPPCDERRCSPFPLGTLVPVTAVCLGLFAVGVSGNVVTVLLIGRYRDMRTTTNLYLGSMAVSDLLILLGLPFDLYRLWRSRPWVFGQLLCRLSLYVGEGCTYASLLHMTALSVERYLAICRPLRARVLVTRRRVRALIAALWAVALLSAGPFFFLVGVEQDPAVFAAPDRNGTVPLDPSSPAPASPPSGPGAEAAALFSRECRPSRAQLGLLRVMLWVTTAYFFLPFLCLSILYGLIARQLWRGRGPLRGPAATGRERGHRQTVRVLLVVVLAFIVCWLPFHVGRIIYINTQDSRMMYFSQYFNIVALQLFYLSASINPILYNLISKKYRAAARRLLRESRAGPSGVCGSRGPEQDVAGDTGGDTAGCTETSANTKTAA
# measurement.protocol: Motilin receptor binding, rabbit colon membranes, 125I porcine motilin
# Design: dose or concentration left out as unconfirmed
# measurement.context: rabbit colon membranes; read-out: Rabbit Colon % Inh
Listed molecules paired with reported inhibition

>  <molecule>
O=C(CCCC(=O)N(Cc1ccc(F)cc1)c1cccc(OCCN2CCOCC2)c1)N(CCc1ccccc1)Cc1ccccc1

>  <inhibition, %>
90

$$$$
>  <molecule>
CCN(CC)CCOc1cccc(N(Cc2ccc(F)cc2)C(=O)CCCC(=O)N(CCc2ccccc2)Cc2ccccc2)c1

>  <inhibition, %>
100

$$$$
>  <molecule>
Cc1c(OCCN2CCCC2)cccc1N(CC1CCCC(N(Cc2ccccc2)C(=O)C(Cl)(Cl)Cl)C1)C(=O)c1ccc(F)cc1 (stereo not shown)

>  <inhibition, %>
90

$$$$
>  <molecule>
O=C(CCCC(=O)N(Cc1ccc(Cl)cc1)c1cccc(OCCN2CCOCC2)c1)N(CCc1ccccc1)Cc1ccccc1

>  <inhibition, %>
84

$$$$
>  <molecule>
O=C(c1ccc(F)cc1)N(CC1CCCC(N(Cc2cccc(Cl)c2)C(=O)C(Cl)(Cl)Cl)C1)c1cccc(OCCN2CCCC2)c1 (stereo not shown)

>  <inhibition, %>
89

$$$$
>  <molecule>
O=C(CCCC(=O)N(Cc1ccc(F)cc1)c1cccc(OCCN2CCCC2)c1)N(CCc1ccccc1)Cc1ccccc1

>  <inhibition, %>
99

$$$$
>  <molecule>
O=C(CCCN(C(=O)Nc1ccccc1)c1cccc(OCCN2CCOCC2)c1)N(CCc1ccccc1)Cc1ccccc1

>  <inhibition, %>
35

$$$$
>  <molecule>
O=C(CCCC(=O)N(Cc1cccc(F)c1)c1cccc(OCCN2CCOCC2)c1)N(CCc1ccccc1)Cc1ccccc1

>  <inhibition, %>
97

$$$$
>  <molecule>
O=C(NCCc1ccccc1)c1cccc(CN(C(=O)c2ccc(F)cc2)c2cccc(OCCN3CCOCC3)c2)c1

>  <inhibition, %>
36

$$$$
>  <molecule>
O=C(c1ccc(F)cc1)N(CC1CCCC(N(Cc2ccccc2)C(=O)C(Cl)(Cl)Cl)C1)c1cccc(OCCN2CCOCC2)c1 (stereo not shown)

>  <inhibition, %>
64

$$$$
>  <molecule>
O=C(CCCC(=O)N1CCc2ccccc2C1c1ccccc1)N(Cc1ccc(F)cc1)c1cccc(OCCN2CCOCC2)c1 (stereo not shown)

>  <inhibition, %>
89

$$$$
>  <molecule>
O=C(Nc1ccccc1)N(c1cccc(OCCN2CCOCC2)c1)C1CCC(CN(Cc2cccc(Cl)c2)C(=O)C(Cl)(Cl)Cl)C1 (stereo not shown)

>  <inhibition, %>
4

$$$$
>  <molecule>
O=C(Nc1ccccc1)N(CC1CCCC(N(Cc2ccccc2)C(=O)Nc2ccccc2)C1)c1cccc(OCCN2CCOCC2)c1 (stereo not shown)

>  <inhibition, %>
11

$$$$
>  <molecule>
O=C(CCCC(=O)N(Cc1ccc(F)cc1)c1cccc(OCCN2CCNCC2)c1)N(CCc1ccccc1)Cc1ccccc1

>  <inhibition, %>
85

$$$$
>  <molecule>
O=C(c1ccc(F)cc1)N(CC1CCCC(N(Cc2ccccc2)C(=O)c2ccco2)C1)c1cccc(OCCN2CCOCC2)c1 (stereo not shown)

>  <inhibition, %>
70

$$$$
>  <molecule>
CN(C)CCCOc1cccc(N(Cc2ccc(F)cc2)C(=O)CCCC(=O)N(CCc2ccccc2)Cc2ccccc2)c1

>  <inhibition, %>
100

$$$$
>  <molecule>
O=C(CCCC(=O)N(Cc1ccc(F)cc1)c1cccc(OCCN2CCCC2)c1)N(CCc1cccs1)Cc1cccc(Cl)c1

>  <inhibition, %>
89

$$$$
>  <molecule>
O=C(CCCC(=O)N(Cc1ccc(F)cc1)c1cccc(OCCCN2CCCCC2)c1)N(CCc1ccccc1)Cc1ccccc1

>  <inhibition, %>
100

$$$$
>  <molecule>
O=C(c1ccc(F)cc1)N(CC1CCCC(N(Cc2ccccc2)C(=O)C(c2ccccc2)c2ccccc2)C1)c1cccc(OCCN2CCOCC2)c1 (stereo not shown)

>  <inhibition, %>
70

$$$$
>  <molecule>
O=C(c1ccc(F)cc1)N(CC1CCCC(N(Cc2cccc(Cl)c2)C(=O)C(Cl)(Cl)Cl)C1)c1cccc(OCCN2CCCCC2)c1 (stereo not shown)

>  <inhibition, %>
98

$$$$
>  <molecule>
COc1cccc(CN(Cc2cccc(Cl)c2)C(=O)CCCC(=O)N(Cc2ccc(F)cc2)c2cccc(OCCN3CCCC3)c2)c1

>  <inhibition, %>
100

$$$$
>  <molecule>
O=C(CCCC(=O)N(Cc1ccc(F)cc1)c1cccc(OCCN2CCOCC2)c1)N(CCCc1ccccc1)Cc1ccccc1

>  <inhibition, %>
83

$$$$
>  <molecule>
O=C(CCCC(=O)N(Cc1ccccc1F)c1cccc(OCCN2CCOCC2)c1)N(CCc1ccccc1)Cc1ccccc1

>  <inhibition, %>
81

$$$$
>  <molecule>
CC(CC(=O)N(CCc1ccccc1)Cc1ccccc1)CC(=O)N(Cc1ccc(F)cc1)c1cccc(OCCN2CCOCC2)c1 (stereo not shown)

>  <inhibition, %>
70

$$$$
>  <molecule>
CN(C)CCOc1cccc(N(Cc2ccc(F)cc2)C(=O)CCCC(=O)N(CCc2ccccc2)Cc2ccccc2)c1

>  <inhibition, %>
100

$$$$
